# Protocol summary: NCI Yeast Anticancer Drug Screen. Data for the mlh1 rad18 strain (AID 175)
# Condition description: S. cerevisiae mlh1 rad18 strain growth inhibition; at 50.0 µM; stronger effect = higher value
This is part of a sample that, as a whole, favours compounds with a hit. Of some 79,000 tested, about 15% had one in any assay. Calls of active or inactive are those of the source. No stated cut-off is given here; in the data, active means growth inhibition above about 70%; inactive means the rest.
Assay readout: growth inhibition

Recorded results for 6 compounds are shown here.
Compound	Measured result
NC1=NC(=O)N2CC12 (stereo unspecified)	6.4% (inactive)
CC(C)c1cc([N+](=O)[O-])cc([N+](=O)[O-])c1O	80.7% (active)
O=S(=O)(F)c1cc(Cl)c(O)cc1Cl	83.2% (active)
Cc1ccc(SP(=S)(Sc2ccc(C)cc2)Sc2ccc(C)cc2)cc1	10% (inactive)
Cc1csc(CP(=O)(OC(C)C)OC(C)C)n1	-5.8% (inactive)
O.O.O=C(O)CC(=O)O.[NH-]C1CCCCC1[NH-].[Pt+2] (stereo unspecified)	-28.6% (inactive)

Task: Quick one: growth inhibition for ClCCCCl ?
Output: -27.6% (inactive)

Task: Quick one: growth inhibition for O=C(O)c1ccccc1O.[Cu] ?
Output: -8.65% (inactive)

Task: Quick one: growth inhibition for CC(=O)Oc1ccc([As](=O)(O)O)cc1 ?
Output: 1.05% (inactive)

Task: Quick one: growth inhibition for O=C([O-])C(F)(F)C(F)(F)F.[C-]#[O+].[C-]#[O+].[C-]#[O+].[C-]#[O+].[C-]#[O+].[Mn] ?
Output: -7.25% (inactive)

Task: Quick one: growth inhibition for C[N+](C)(C)CC1CCCC(C[N+](C)(C)C)C1O (stereo unspecified) ?
Output: 95.2% (active)

Task: Quick one: growth inhibition for CN(C)C(=S)[S][Hg][c]1ccccc1 ?
Output: 91.5% (active)
